- target-or-test-system: SLC25A1 (mitochondrial citrate carrier) (Homo sapiens, UniProt P53007)
- Construct: Histidine-tagged recombinant purified SLC25A1
- Sequence (P53007 14-311): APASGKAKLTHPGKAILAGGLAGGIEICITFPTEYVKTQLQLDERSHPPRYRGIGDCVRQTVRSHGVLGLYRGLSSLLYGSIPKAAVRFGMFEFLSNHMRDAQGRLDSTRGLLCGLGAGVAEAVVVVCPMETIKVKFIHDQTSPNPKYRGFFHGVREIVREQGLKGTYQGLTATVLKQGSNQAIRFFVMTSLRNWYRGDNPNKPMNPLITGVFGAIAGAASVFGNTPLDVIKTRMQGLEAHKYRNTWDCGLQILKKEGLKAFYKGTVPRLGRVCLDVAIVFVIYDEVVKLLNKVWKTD
- assay-overview: SPR (Biacore […], NTA chip, […] steady-state fit)
pKd: −log10 of the molar value.
quantity-name: pKd

(I) O=C(O)c1ccc(Cl)c(S(=O)(=O)Nc2cccc([N+](=O)[O-])c2)c1
(II) O=C(O)c1ccccc1NS(=O)(=O)c1ccc(Cl)c([N+](=O)[O-])c1
Lookup: Param pair: I , II . Output: the one whose pKd is numerically greater. Respond with the label that goes with your answer.
Found: II
(II: 5.46, I: 4.20)

The measured values listed here are drawn from paper PMC6030199.
